target-entity: T1, glucagon receptor present in the plasma membranes isolated from rat liver (rat, UniProt P30082 27-485)
T1 construct: whole, on cells
T1 sequence (P30082 27-485): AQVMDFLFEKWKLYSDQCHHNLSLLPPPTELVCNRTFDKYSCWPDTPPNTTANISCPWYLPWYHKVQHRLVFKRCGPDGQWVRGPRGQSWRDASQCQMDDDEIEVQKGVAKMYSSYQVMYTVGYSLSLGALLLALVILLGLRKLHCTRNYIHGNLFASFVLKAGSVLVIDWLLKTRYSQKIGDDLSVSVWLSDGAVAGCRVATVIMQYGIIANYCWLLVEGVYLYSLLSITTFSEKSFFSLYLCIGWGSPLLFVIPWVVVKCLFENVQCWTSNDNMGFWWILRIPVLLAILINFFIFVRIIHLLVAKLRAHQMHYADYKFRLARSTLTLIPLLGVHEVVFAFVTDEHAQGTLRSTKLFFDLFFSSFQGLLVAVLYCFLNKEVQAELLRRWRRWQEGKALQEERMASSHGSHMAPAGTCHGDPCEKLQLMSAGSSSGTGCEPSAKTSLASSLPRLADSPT
method: 125I-glucagon displacement, rat liver plasma membranes
Ends that are not written are not given here.
measurement-kind: IC50 (nM)

• HSQGTFTSDYAKYLDARRAKEFIAWLVKGRC(PEG22kD) [G277] = 65.5
• HSQGTFTSDYAKYLDARRAKEFIAWLVKGR-NH2 [G27] = 69.3
• HSQGTFTSDYAKYLDARRAKEFIAWLVKGRG [G51] = 154

I: HSQGTFTSDYAKYLDARRAKEFIAWLVCGRG [G74]
II: HSQGTFTSDYARYLDARRAREFIKWLVRGRC(PEG43kD) [G4185]
III: HSQGTFTSDYSKYLEGQAAKEFIAWLVKGR-NH2 [G5]
IV: HSQGTFTSDYARYLDARRAKEFIAWLVKGR-NH2 [G55]
V: HSQGTFTSDYAKYLDARRAKEFIAWLVKGCG [G76]
Inquiry: Please give the order of these binders when sorted by IC50, largest value leading. State the ranking by listing the labels in the requested order.
Reply text: II, III, IV, V, I
(II: 547 nM, III: 243 nM, IV: 139 nM, V: 59.1 nM, I: 21.7 nM)

Source: patent US20040002442A1
